target system: T1, CD22 (antigen in the Biacore assay) (human, UniProt P20273 20-687, limits assumed)
T1 sequence: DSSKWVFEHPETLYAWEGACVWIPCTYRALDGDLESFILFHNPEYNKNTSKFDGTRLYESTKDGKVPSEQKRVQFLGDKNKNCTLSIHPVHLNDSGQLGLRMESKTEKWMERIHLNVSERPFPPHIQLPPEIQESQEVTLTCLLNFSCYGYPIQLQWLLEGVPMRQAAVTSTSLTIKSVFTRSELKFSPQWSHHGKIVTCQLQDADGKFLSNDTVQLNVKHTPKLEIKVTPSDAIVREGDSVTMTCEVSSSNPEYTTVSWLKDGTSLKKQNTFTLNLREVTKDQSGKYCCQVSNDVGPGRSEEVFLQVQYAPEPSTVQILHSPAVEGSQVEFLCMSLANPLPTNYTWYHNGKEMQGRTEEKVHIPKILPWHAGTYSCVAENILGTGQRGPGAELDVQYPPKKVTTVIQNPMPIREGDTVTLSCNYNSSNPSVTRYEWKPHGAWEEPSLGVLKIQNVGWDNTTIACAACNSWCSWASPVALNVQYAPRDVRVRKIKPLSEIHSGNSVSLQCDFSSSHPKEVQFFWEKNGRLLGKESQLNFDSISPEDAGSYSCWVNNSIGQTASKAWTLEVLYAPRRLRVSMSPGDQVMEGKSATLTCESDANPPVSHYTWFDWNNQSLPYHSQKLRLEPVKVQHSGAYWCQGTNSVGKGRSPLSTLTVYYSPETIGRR
test description: SPR (Biacore) at 37° C
measure: kon (M⁻¹ s⁻¹)

1. humanized LL2 L1 + H4 (antibody, V domains shown, Human IgG1 frameworks; also called H4L1) VH: QVQLQQSGAEVKKPGASVKMSCKASGYTFTSYWLHWIRQAPGQRLEWMGYINPRNDYTEYNQKFQGRATITADKSASTAYMELSSLRSEDTAVYYCARRDITTFYWGQGTTLTVSS VL: DIVLTQSPDSLAVSAGERVTMNCKSSQSVLYSANHKNYLAWYQQKPGQPPKLLIYWASTRESGVPDRFSGSGSGTDFTLTISSVQAEDVAIYYCHQYLSSWTFGGGTKLEIK | 154000
2. humanized LL2 L1 + H11 (antibody, V domains shown, Human IgG1 frameworks; also called H11L1; VL1-VH11) VH: QVQLVQSGAEVKKPGASVKMSCKASGYTFTSYWLHWVRQAPGQRLEWMGYINPRNDYTEYNQNFKDRATITADTSASTAYMELSSLRSEDTAVYYCARRDITTFYWGQGTTLTVSS VL: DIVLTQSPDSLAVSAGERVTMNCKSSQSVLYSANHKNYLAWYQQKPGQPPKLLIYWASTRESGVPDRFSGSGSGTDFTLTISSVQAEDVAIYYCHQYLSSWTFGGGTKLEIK | 164000
3. humanized LL2 L1 + H5 (antibody, V domains shown, Human IgG1 frameworks; also called H5L1) VH: QVQLQESGAEVKKPGASVKVSCKASGYTFTSYWLHWVRQAPGQRLEWIGYINPRNDYTEYSQKFQGRATLTADTSASTAYMELSSLRSEDTAVYYCARRDITTFYWGQGTTLTVSS VL: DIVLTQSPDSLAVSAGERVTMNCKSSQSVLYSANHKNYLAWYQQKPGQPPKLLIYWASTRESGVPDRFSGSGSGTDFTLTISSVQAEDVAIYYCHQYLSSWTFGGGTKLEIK | 102000
4. chimeric LL2 antibody (antibody, V domains shown, Murine LL2 variable domains with human constant domains (IgG1)) VH: QVQLQESGAELSKPGASVKMSCKASGYTFTSYWLHWIKQRPGQGLEWIGYINPRNDYTEYNQNFKDKATLTADKSSSTAYMQLSSLTSEDSAVYYCARRDITTFYWGQGTTLTVSS VL: DIQLTQSPSSLAVSAGENVTMSCKSSQSVLYSANHKNYLAWYQQKPGQSPKLLIYWASTRESGVPDRFTGSGSGTDFTLTISRVQVEDLAIYYCHQYLSSWTFGGGTKLEIK | 169000
5. humanized LL2 L1 + H3 (antibody, V domains shown, Human IgG1 frameworks; also called H3L1) VH: QVQLQQSGAEVKKPGASVKVSCKASGYTFTSYWLHWIRQAPGQRLEWIGYINPRNDYTEYSQKFQGRATLTADTSASTAYMELSSLRSEDTAVYYCARRDITTFYWGQGTTLTVSS VL: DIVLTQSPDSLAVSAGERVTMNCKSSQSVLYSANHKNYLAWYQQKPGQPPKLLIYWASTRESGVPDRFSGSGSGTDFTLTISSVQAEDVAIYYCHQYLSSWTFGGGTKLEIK | 89800
